- target or test system: full length recombinant Pim-2 protein (Homo sapiens)
- Construct: by full length recombinant Pim-1, Pim-2, or Pim-3 protein; hexahistidine tag followed by a thrombin cleavage site (N); made in house; host or cells: Sf9 (baculovirus) or E. coli (pET28)
- Sequence (Q9P1W9 whole entry): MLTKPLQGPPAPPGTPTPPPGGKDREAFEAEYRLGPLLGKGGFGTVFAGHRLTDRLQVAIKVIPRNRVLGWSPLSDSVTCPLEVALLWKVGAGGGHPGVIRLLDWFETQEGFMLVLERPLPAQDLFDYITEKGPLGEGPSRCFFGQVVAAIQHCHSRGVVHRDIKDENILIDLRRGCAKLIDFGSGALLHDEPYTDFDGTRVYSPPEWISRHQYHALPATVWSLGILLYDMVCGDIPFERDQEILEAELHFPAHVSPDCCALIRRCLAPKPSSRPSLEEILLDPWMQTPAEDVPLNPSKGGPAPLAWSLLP
- assay info: Pim-2 enzyme assay (HTRF, phosphorylation of biotinylated-BAD (S112) peptide)
- Format: biochemical
- condition label: enzyme assay, Pim-2; read-out: Pim2_IC50
Provide the recorded pIC50 for the entries that follow.
Hey, just a heads up that pIC50 is the negative log base 10 of the concentration in molar.

Given the entry Nc1cccc(-c2ccc3[nH]nc(-c4cncc(N5CCC(N)CC5)n4)c3c2)c1 , report its measured pIC50.
7.54

Also Fc1cccc(F)c1-c1ccc2[nH]nc(-c3ccnc(O[C@@H]4CCCNC4)n3)c2c1 ?
6.65

Also COc1nccc(-c2ccc3[nH]nc(-c4cncc(O[C@@H]5CCCNC5)n4)c3c2)n1 ?
7.44

Also NC1CCN(c2cncc(-c3n[nH]c4ccc(-c5cn6ccnc6cn5)cc34)n2)CC1 ?
7.24

These entries and their values trace back to patent US9090593B2.
